experiment: yeast display, Sf9 membrane polyspecificity reagent, FACS + sequencing; frameworks hold sequencing errors
Assay Readout: polyreactivity (PSR sort gate)

Previously resolved entries follow.
{"Chain": "QVQLVESGGGLVQAGGSLRLSCAASGYTFIVNAMGWYRQAPGKERELVAAITSGGGTYYADSVKGRFTISRDNAKNTVYLQMNCLKPEDTAVYYCAARSGYRYVESDYWGQGTQVTVSS", "polyreactivity (PSR sort gate)": "high polyreactivity"}
{"Chain": "QVQLVESGGGLVQAGGSLRLICAASGIIFLYYAMGWYRQAPGKEWELVAAISSGVSTYYADSVKGRFTISRDNAKNTVYLQLNSLKPEDTAVYYCNADYYQLNSGMYYWGQGTQVTVSS", "polyreactivity (PSR sort gate)": "low polyreactivity"}
{"Chain": "QVQLVESGGGLVQAGGSLRLICAASGFTFYYKAMGWYRPAHGKERELVAAISTGGSTYYADSVKGRFTISRDNAKNTVYLQMNSLKPEDTAVYYCARSLWTGGYGYYYWGQGTQVTVSS", "polyreactivity (PSR sort gate)": "high polyreactivity"}
{"Chain": "QVQLVESGGGLVQAGGILRLSCAASGSIFQTNAMGWYRPAPGKERELVAAISQRGGRTYYADSVKGRFTISRDYAKNTVYLHLKSLKPEDTAVYYGAATQSQRVHAARYGYWGQGSQVTVSS", "polyreactivity (PSR sort gate)": "high polyreactivity"}
{"Chain": "QVHLVESGGGLVQAGGSLRLSCAASGSTSDNTMGWYRQAPGKERELVAAISQRGVSTYYADSVKGRFTISRDNAKNTVYLQMNSLKPEDTAVYYCNALLSAKFDYWGQGTQVTVSS", "polyreactivity (PSR sort gate)": "low polyreactivity"}

Request: Data request, read-out polyreactivity (PSR sort gate), for QVQLVESGGGLVQAGGSLRLTCAASGRIFRVNGMGWYRQAPWKERDLVAPIRRSGGSTYYADSVKGRFTISRDNSKNNVYLQMKSLKPEDTAVYYCAAPVLLSSYTRYDSWGQGTQVTVSS
Result: high polyreactivity

Request: Looking for the measured polyreactivity (PSR sort gate) of QVQLVESGGGLLQAGGSLRLSCAASGITFDGNAMGWYRQAPWKERELVAGISGSGGGTYYADSVKGRFTISRDNAKNTVYLQMNSLKPEDTEVYYCAADTSTSHAYDYWGQGTQVTVSS , can you help?
Result: low polyreactivity

Request: What value of polyreactivity (PSR sort gate) has been reported for the following sequence? QVQLVESGGGLVQAGGSLRFSCAASGRTFYGYAMGWYRQAPGKERELVAAITRSGGSTYYADSVKGRFTISRDNAKNTVYLQMNSLKPEDTAVYYCAAGGQARHDYWGQGTQVTVSS
Result: low polyreactivity
